These entries and their values trace back to patent US20220265629A1.

Test: Single ascending oral dose study in healthy volunteers: plasma pharmacokinetics
Format: in vivo, human
Settings: human, plasma, oral, 10 mg, 24 Hours Postdose; 10 mg; read-out: Plasma concentration, Median
measure: concentration at 24 h (ng/mL)
Enter your answer as a number in ng/mL; do not include the unit.

GET /value?item= Cn1cc(S(=O)(=O)[C@@](C)(F)C2CCN(C(=O)Nc3ccon3)CC2)c(C(F)F)n1 [Compound I] &field=concentration at 24 h returns 61.5

###

Experiment: Food effect cross-over study, 200 mg (25 mg tablets), healthy volunteers: plasma pharmacokinetics
Assay type: in vivo, human
Settings: human, plasma, po, single 200 mg oral dose, Fed (N = 10), read-out: T1/2, z, Median (converted)
measure: half-life (h)
Enter your answer as a number in h; do not include the unit.

GET /value?item= Cn1cc(S(=O)(=O)[C@@](C)(F)C2CCN(C(=O)Nc3ccon3)CC2)c(C(F)F)n1 &field=half-life returns 13.5

###

Assay: Food effect cross-over study, 200 mg (25 mg tablets), healthy volunteers: plasma pharmacokinetics
Type: in vivo, human
Conditions: human, plasma, oral, 36 hours postdose, Fasted, read-out: Plasma concentration, Median
measure: concentration at 36 h (ng/mL)
Enter your answer as a number in ng/mL; do not include the unit.

GET /value?item= Cn1cc(S(=O)(=O)[C@@](C)(F)C2CCN(C(=O)Nc3ccon3)CC2)c(C(F)F)n1 &field=concentration at 36 h returns 596

###

Assay: Food effect cross-over study, 200 mg (25 mg tablets), healthy volunteers: plasma pharmacokinetics
Type: in vivo, human
Settings: human, plasma, po, single 200 mg oral dose, Fed (N = 10), read-out: Cmax, Median
measure: Cmax (ng/mL)
Enter your answer as a number in ng/mL; do not include the unit.

GET /value?item= Cn1cc(S(=O)(=O)[C@@](C)(F)C2CCN(C(=O)Nc3ccon3)CC2)c(C(F)F)n1 &field=Cmax returns 3770

###

Experiment: Single ascending oral dose study in healthy volunteers: plasma pharmacokinetics
Assay type: in vivo, human
Details: human, plasma, oral, 3 mg; read-out: AUC0-48, Mean
measure: AUC(0-t) (ng·h/mL)
Enter your answer as a number in ng·h/mL; do not include the unit.

GET /value?item= Cn1cc(S(=O)(=O)[C@@](C)(F)C2CCN(C(=O)Nc3ccon3)CC2)c(C(F)F)n1 &field=AUC(0-t) returns 689

###

Assay: Single ascending oral dose study in healthy volunteers: plasma pharmacokinetics
Assay type: in vivo, human
Conditions: human, plasma, oral, 100 mg; read-out: Mean Residence Time, Geometric Mean
measure: MRT (h)
Enter your answer as a number in h; do not include the unit.

GET /value?item= Cn1cc(S(=O)(=O)[C@@](C)(F)C2CCN(C(=O)Nc3ccon3)CC2)c(C(F)F)n1 &field=MRT returns 19.1

###

Assay: Food effect cross-over study, 200 mg (25 mg tablets), healthy volunteers: plasma pharmacokinetics
Format: in vivo, human
Conditions: human, plasma, oral, 4 hours postdose, Fed, read-out: Plasma concentration, Geometric Mean
measure: concentration at 4 h (ng/mL)
Enter your answer as a number in ng/mL; do not include the unit.

GET /value?item= Cn1cc(S(=O)(=O)[C@@](C)(F)C2CCN(C(=O)Nc3ccon3)CC2)c(C(F)F)n1 [Compound I] &field=concentration at 4 h returns 2610
